Collected Activity values appear next to each entry.
# System: FL5.12
# PROCEDURE_TEXT: Induction of vacuolation in mouse FL5.12 cells assessed as vacuolation score at 10 uM preincubated with PP2A inhibitor calyculin A for 60 mins followed by compound addition and measured after 2 hrs by fluorescence microscopic method
# Type: functional
Reply: number alone, nothing else.

Example cases with answers are listed next.
# COMPOUND, REPORTED_VALUE
rows = [
    ("CCCCCCCCc1ccc([C@H]2CCN[C@@H]2COCCCC(O)c2cnc(OC)nc2OC)cc1.Cl (stereo not given in full)", 15),
    ("OCCN1CCN(CCCN2c3ccccc3Sc3ccc(Cl)cc32)CC1 [PERPHENAZINE]", 3),
    ("CCCCCCCCc1ccc([C@H]2CCN[C@@H]2CO)cc1.Cl", 60),
    ("CCCCCCCCc1ccc([C@H]2CCN[C@@H]2COCCCCc2cccnc2)cc1.Cl", 11),
    ("CCCCCCCCc1ccc([C@H]2CCN[C@@H]2COCCCCCN2c3ccccc3Sc3ccccc32)cc1.Cl", 18),
    ("CCCCCCCCc1ccc([C@H]2CCN[C@@H]2COCCCCN2c3ccccc3Oc3ccccc32)cc1.Cl", 15),
    ("CCCCCCCCc1ccc([C@H]2CCN[C@@H]2COCCCN2c3ccccc3Oc3ccccc32)cc1.Cl", 23),
    ("CCCCCCCCc1ccc([C@H]2CCN[C@@H]2COCCCCCN2c3ccccc3Oc3ccccc32)cc1.Cl", 16),
    ("CCCCCCCCc1ccc([C@H]2CCN[C@@H]2COCCCC(O)c2cccnc2)cc1.Cl (stereo not given in full)", 17),
]

Summary for this compound, `O=S(=O)(N[C@@H]1CCC[C@H](N2c3ccccc3Oc3ccccc32)[C@H]1O)c1ccc(OC(F)(F)F)cc1` : Activity is 0
